# ASSAY SYSTEM: T1, mouse SIRPβ1 on CHO cells (mouse)
# T1 construct: Whole entry
# T1 chain: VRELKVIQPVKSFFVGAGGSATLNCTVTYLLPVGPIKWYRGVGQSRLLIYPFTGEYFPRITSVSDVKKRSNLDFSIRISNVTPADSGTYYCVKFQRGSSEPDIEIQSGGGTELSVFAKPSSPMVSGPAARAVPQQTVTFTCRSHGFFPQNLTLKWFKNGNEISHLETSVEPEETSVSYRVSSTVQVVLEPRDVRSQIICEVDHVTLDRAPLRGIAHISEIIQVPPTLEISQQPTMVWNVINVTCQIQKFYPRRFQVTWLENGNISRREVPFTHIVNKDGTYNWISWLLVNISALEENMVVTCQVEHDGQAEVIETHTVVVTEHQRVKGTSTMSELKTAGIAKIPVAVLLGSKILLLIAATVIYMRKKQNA
# RUN DESCRIPTION: flow cytometry;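 further: antibody binding to cells detected with a PE-labelled secondary antibody, given as mean fluorescence intensity relative to background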
EXPERIMENTAL READOUT: FOB (fold over background)

| BINDER | READING UNIT | EXPERIMENTAL VALUE |
| --- | --- | --- |
| SB-40-18 (antibody, V domains shown, IgG) VH: QVQLVQSGAEVKKPGASVKVSCKASGYTFTSYYMAWVRQAPGQRLEWMGWINPAVGATIYSQKFQGRVTITRDTSASTAYMELSSLRSEDTAVYYCARDTGEYSYSPHGMDVWGQGTTVTVSS VL: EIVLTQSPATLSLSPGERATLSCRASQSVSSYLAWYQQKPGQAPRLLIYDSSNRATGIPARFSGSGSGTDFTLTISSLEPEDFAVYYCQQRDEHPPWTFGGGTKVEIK | fold over background | 2 |
